molecular target: JAK1 (Homo sapiens, UniProt P23458); assay: JAK1 biochemical test (33P-ATP filter binding kinase assay); conditions: room temperature, 2 hours
Sequence (P23458 whole entry): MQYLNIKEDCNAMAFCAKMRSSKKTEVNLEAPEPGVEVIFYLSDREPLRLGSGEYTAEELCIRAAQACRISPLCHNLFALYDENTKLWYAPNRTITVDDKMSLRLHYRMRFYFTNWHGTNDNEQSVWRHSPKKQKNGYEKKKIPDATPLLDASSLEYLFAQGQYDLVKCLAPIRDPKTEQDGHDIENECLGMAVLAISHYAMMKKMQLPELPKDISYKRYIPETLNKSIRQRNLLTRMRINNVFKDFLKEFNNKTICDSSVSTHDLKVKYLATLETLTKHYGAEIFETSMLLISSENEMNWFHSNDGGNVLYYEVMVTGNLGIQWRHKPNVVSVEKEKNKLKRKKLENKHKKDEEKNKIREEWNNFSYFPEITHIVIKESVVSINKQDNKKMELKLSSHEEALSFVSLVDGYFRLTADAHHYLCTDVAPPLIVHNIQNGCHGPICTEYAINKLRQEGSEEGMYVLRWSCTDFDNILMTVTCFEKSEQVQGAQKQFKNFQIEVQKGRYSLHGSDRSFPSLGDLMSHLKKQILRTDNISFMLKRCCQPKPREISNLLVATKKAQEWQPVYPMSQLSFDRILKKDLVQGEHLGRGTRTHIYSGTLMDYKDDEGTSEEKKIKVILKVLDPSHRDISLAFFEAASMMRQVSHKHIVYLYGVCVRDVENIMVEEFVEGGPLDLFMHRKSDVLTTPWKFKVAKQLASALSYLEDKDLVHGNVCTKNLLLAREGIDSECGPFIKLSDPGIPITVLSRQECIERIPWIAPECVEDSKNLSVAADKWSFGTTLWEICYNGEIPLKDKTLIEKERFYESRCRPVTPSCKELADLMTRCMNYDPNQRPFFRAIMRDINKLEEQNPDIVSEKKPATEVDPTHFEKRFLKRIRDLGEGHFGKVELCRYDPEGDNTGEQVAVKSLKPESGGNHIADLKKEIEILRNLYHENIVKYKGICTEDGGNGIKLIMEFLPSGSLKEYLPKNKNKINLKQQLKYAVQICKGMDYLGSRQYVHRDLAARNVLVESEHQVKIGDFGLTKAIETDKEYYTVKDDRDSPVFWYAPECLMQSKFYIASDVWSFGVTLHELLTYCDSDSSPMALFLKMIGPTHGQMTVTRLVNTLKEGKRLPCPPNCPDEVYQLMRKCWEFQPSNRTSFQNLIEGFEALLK
Reported metric: IC50

Here are 5 compounds together with their reported answers.
> print(dat)
                                   compound                        tested.system  test.value
1  CNS(=O)(=O)C[C@H]1CC[C@H](N(C)c2nc(Nc3cnn(C)c3)ncc2C)CC1 [Compound 21, reference compound]  JAK1 (Homo sapiens, UniProt P23458)    > 100 nM
2  Cc1cnc(Nc2cnn(C3COC3)c2)nc1-c1cnn([C@H](CC#N)C2CCCC2)c1  JAK1 (Homo sapiens, UniProt P23458)      < 1 nM
3  Cc1cnc(Nc2cnn(C)c2)nc1-c1cnn([C@H](CC#N)C2CCCC2)c1  JAK1 (Homo sapiens, UniProt P23458)      < 1 nM
4  Cc1cnc(Nc2ccc3ncn(C)c3c2)nc1-c1cnn([C@H](CC#N)C2CCCC2)c1  JAK1 (Homo sapiens, UniProt P23458)      < 1 nM
5  Cc1cnc(Nc2cnn(C)c2)nc1N(C)[C@H]1CN(C(=O)CC#N)CC[C@H]1C [Compound 22, reference compound]  JAK1 (Homo sapiens, UniProt P23458)    > 100 nM

What does the data say about its IC50? Entry: `Cc1cnc(Nc2cnoc2)nc1-c1cnn([C@H](CC#N)C2CCCC2)c1`
< 1 nM

What does the data say about its IC50? Entry: `Cc1cnc(Nc2cnn(CC3CCOCC3)c2)nc1-c1cnn([C@H](CC#N)C2CCCC2)c1`
< 1 nM

What does the data say about its IC50? Entry: `Cc1cnc(Nc2cnn(CC3COC3)c2)nc1-c1cnn([C@H](CC#N)C2CCCC2)c1`
< 1 nM

What does the data say about its IC50? Entry: CCS(=O)(=O)N1CC(CC#N)(n2cc(-c3nc(Nc4cn(C)nn4)ncc3C)cn2)C1 [Compound 19, reference compound]
> 10 nM

====

target: JAK3 (Homo sapiens, UniProt P52333); experiment: JAK3 biochemical test (33P-ATP filter binding kinase assay); details: room temperature, 2 hours
Sequence (P52333 whole entry): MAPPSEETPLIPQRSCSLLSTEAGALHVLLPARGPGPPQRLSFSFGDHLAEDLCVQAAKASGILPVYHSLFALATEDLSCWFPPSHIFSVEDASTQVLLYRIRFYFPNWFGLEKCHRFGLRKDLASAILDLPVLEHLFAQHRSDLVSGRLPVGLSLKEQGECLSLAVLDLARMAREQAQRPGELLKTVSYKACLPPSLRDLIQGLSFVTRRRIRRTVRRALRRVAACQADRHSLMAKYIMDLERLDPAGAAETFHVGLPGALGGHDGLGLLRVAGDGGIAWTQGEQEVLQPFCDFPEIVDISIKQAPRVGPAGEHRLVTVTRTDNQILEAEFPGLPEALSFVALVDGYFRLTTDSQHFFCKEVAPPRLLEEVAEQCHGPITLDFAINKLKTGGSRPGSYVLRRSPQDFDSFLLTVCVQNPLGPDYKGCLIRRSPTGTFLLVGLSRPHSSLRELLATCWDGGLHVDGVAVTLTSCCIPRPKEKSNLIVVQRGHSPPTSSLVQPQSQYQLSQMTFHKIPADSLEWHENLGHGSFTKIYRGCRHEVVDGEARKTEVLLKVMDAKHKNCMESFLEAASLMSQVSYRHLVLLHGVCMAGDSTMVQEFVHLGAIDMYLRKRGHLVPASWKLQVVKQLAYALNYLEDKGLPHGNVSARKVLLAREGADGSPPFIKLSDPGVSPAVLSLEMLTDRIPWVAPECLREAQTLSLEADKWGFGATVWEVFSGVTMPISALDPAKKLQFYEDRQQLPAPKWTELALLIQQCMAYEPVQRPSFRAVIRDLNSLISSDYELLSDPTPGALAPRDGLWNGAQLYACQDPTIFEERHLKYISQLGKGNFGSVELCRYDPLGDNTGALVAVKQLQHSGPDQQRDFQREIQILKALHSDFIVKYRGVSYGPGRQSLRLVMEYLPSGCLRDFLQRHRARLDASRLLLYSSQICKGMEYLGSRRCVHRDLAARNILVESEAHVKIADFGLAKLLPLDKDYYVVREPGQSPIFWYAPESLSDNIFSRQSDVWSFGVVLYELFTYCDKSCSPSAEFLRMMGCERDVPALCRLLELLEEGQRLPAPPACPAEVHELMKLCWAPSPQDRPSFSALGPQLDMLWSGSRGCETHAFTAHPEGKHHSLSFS
pIC50: −log10 of the molar value.
Reported metric: pIC50

What does the data say about its pIC50? Entry: `CCS(=O)(=O)N1CC(CC#N)(n2cc(-c3nc(Nc4cnn(C)c4)ncc3C)cn2)C1`
< 8.00

====

assay: Mini-pig dermal pharmacokinetic study; assay type: in vivo, Guangxi Bama mini-pigs; conditions: minipig, plasma, topical or ocular, 15 mg/cm^2, topical ointment, 15 mg/cm^2 at 0 h, 8 h and 24 h; plasma; read-out: Plasma AUC0-last
Reported metric: AUC(0-t) (µg·h/mL)
The reply should contain only the number, in µg·h/mL.

What does the data say about its AUC(0-t)? Entry: Cc1cnc(Nc2cnn(C)c2)nc1-c1cnn([C@H](CC#N)C2CCCC2)c1 [Compound 4]
0.103

====

Target: TYK2 (Homo sapiens)
Sequence (P29597 whole entry): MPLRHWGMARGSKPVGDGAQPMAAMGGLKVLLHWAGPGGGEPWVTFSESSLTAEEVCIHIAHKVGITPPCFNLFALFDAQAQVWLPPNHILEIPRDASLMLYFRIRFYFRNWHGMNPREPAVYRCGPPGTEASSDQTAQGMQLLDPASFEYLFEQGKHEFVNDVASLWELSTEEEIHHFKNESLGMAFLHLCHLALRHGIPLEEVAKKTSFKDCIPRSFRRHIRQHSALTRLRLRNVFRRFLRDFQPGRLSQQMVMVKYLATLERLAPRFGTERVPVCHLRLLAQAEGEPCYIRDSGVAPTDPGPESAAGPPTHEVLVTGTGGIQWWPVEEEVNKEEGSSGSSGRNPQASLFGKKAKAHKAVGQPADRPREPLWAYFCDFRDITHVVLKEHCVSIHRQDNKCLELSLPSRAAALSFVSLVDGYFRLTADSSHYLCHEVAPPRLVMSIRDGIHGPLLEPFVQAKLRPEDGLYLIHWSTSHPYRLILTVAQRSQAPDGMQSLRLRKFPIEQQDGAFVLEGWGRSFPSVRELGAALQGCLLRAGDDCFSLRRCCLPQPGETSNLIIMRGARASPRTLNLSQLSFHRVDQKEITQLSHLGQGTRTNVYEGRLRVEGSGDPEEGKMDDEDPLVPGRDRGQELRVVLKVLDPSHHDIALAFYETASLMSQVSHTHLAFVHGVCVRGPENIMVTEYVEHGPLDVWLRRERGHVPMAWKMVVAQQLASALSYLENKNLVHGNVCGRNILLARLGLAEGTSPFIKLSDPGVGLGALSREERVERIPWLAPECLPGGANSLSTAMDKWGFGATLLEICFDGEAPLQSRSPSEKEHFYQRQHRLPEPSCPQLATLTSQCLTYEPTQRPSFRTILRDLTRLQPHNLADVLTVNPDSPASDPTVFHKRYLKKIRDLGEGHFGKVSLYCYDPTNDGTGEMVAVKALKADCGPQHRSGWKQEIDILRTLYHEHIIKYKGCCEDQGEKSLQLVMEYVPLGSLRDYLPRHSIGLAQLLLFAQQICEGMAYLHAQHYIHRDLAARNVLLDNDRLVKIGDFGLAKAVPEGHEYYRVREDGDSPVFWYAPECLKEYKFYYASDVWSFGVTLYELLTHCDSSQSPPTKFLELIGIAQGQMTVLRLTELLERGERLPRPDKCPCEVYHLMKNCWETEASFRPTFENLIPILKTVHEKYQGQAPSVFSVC
Test: TYK2 biochemical test (33P-ATP filter binding kinase assay)
Settings: room temperature, 2 hours
Description: The tests were conducted by Reaction Biology Corp, Malvern, PA (Anastassiadis et al. Nat Biotechnol. 2011; 29(11):1039-45). The step is briefly described as follows. Basic reaction buffer: 20 mM Hepes (pH 7.5), 10 mM MgCl2, 1 mM EGTA, 0.02% Brij35, 0.02 mg/ml BSA, 0.1 mM Na3VO4, 2 mM DTT and 1% DMSO. The required cofactor was added to each kinase reaction respectively. • 1. Preparing the designated substrate in the newly prepared basic reaction buffer; • 2. […]
pIC50: −log10 of the molar value.
Reported pIC50 values follow for various compounds

Here are 5 compounds together with their reported answers.
> print(dat)
                                   compound        tested.system  test.value
1  Cc1cnc(Nc2cnoc2)nc1-c1cnn([C@H](CC#N)C2CCCC2)c1  TYK2 (Homo sapiens)      > 9.00
2  Cc1cnc(Nc2cnn(C3CCOCC3)c2)nc1-c1cnn([C@H](CC#N)C2CCCC2)c1  TYK2 (Homo sapiens)      > 9.00
3  CCS(=O)(=O)N1CC(CC#N)(n2cc(-c3nc(Nc4ccn(C)n4)ncc3C)cn2)C1.Cl [Compound 14, hydrochloride, reference compound]  TYK2 (Homo sapiens)      < 8.00
4  N#CC[C@H](C1CCCC1)n1cc(-c2nc(Nc3cnn(C4CCOCC4)c3)ncc2Cl)cn1  TYK2 (Homo sapiens)      > 9.00
5  Cc1cnc(Nc2cnn(CC3CCOCC3)c2)nc1-c1cnn([C@H](CC#N)C2CCCC2)c1  TYK2 (Homo sapiens)      > 9.00

What does the data say about its pIC50? Entry: CCCS(=O)(=O)N[C@H]1C[C@@H](N(C)c2nc(Nc3cnn(C)c3)ncc2C)C1 [Compound 20, reference compound]
< 8.00

What does the data say about its pIC50? Entry: `Cc1cnc(Nc2cnn(C3COC3)c2)nc1-c1cnn([C@H](CC#N)C2CCCC2)c1`
> 9.00
